From: patent US9340577B2

This section presents sequences with their documented IC50 values.
testedSystem: A*3002 (Homo sapiens, UniProt P04439, D101N/D140H/D185E/E176R/F33S/G80R/H175R/K168Q/Q94H/R138E/R41S/V100E)
assayProtocol: biochemical
Type: binding
No end group written: not given here.
Write down the numeric answer in nM and omit the unit.

Consider the reported IC50 for these sequences:
Give recorded IC50. YTDGPGTRY [Peptide 9018.0002]
63

Give recorded IC50. LSEMIQWAY [Peptide 1580.17]
77

API: the following record is the query input.
Give recorded IC50. ISNYTDTIY [Peptide 9015.0007]
36

====

testedSystem: HLA-A*0201 (HLA-A2.1) (Homo sapiens, UniProt P04439, D140Y/D185E/D98H/E176V/E277Q/G131W/G231S/I119V/I121R/I166T/I218V/L300P/L318F/N151K/N90K/P208A/P217A/Q86G/Q94H/R138H/R169H/T345S)
assayProtocol: biochemical
Assay type: binding
pIC50: −log10 of the molar value. No end group written: not given here.
Mark Fulfilled for reported pIC50 of 7 or greater; mark Not fulfilled for anything smaller.

These solved cases illustrate the format of a correct answer.
Say whether NLTVNNSGSYT [Peptide 9013.0303] shows pIC50 of 7 or more.
Not fulfilled

Say whether `LMVTVYYGV` shows pIC50 of 7 or more.
Fulfilled

Say whether FLQGSVICFV [Peptide 1578.05] shows pIC50 of 7 or more.
Fulfilled

Say whether VQWAYDNDV [Peptide 86.0190] shows pIC50 of 7 or more.
Not fulfilled

Say whether NVAEGKEVV [Peptide 9013.0015] shows pIC50 of 7 or more.
Not fulfilled

Continuing:
Say whether GLNLSLSCHAA [Peptide 9013.0312] shows pIC50 of 7 or more.
Not fulfilled

Say whether LLQQYCLYL [Peptide 1578.01] shows pIC50 of 7 or more.
Not fulfilled

Say whether MLGVLVGVALI [Peptide 9013.0349] shows pIC50 of 7 or more.
Not fulfilled

Say whether VAWDSVYYV [Peptide 1593.57] shows pIC50 of 7 or more.
Fulfilled

Say whether KLTQLCVTL [Peptide 1537.02] shows pIC50 of 7 or more.
Fulfilled

Say whether AVAFTCEPEV [Peptide 9013.0155] shows pIC50 of 7 or more.
Not fulfilled

Say whether YTLHVIKSDV [Peptide 9013.0151] shows pIC50 of 7 or more.
Not fulfilled

Say whether LTIESTPFNVV [Peptide 9013.0267] shows pIC50 of 7 or more.
Not fulfilled

Say whether RLYVCGIQNSV [Peptide 9013.0335] shows pIC50 of 7 or more.
Not fulfilled

Say whether LIQPYSIYA [Peptide 86.0202] shows pIC50 of 7 or more.
Not fulfilled

Say whether YLCGIQNSVSA [Peptide 9013.0338] shows pIC50 of 7 or more.
Not fulfilled

Say whether QQSTQELFV [Peptide 9013.0056] shows pIC50 of 7 or more.
Not fulfilled

Say whether LQLSNDNRV [Peptide 9013.0072] shows pIC50 of 7 or more.
Not fulfilled

Say whether VLKSDLVNEEA [Peptide 9013.0279] shows pIC50 of 7 or more.
Not fulfilled
